Value source: patent US8129371B2

Could you please report measured pIC50 for the items listed next?
Target: Human mTOR (FLAG-TOR) (Homo sapiens, UniProt P42345)
Construct: FLAG
Experiment: Human mTOR kinase assay with purified enzyme, DELFIA format
Type: biochemical
Notebook: values listed as pIC50 are -log10 of the concentration (mol/L).

Query: Consider the compound shown here: `CC(C)n1ncc2c(N3CC4CCC(C3)O4)nc(-c3ccc(NC(=O)OCCCO)cc3)nc21` What is its recorded pIC50?
Response: 8.56

Query: Value lookup for pIC50; key = `CC(C)(C)n1ncc2c(N3CC4CCC(C3)O4)nc(-c3ccc(NC(=O)Nc4cccnc4)cc3)nc21`
Response: 9.20

Query: Item under review: `CCOC(=O)N1CCC(n2ncc3c(N4CC5CCC(C4)O5)nc(-c4ccc(NC(=O)Nc5ccccc5)cc4)nc32)CC1` . Reported pIC50?
Response: 9.44

Query: Please give the measured pIC50 for this compound: `CNC(=O)Nc1ccc(-c2nc(N3CC4CCC(C3)O4)c3cnn(C4CCN(Cc5cccnc5)CC4)c3n2)cc1`
Response: 9.33

Query: # get_value(readout='pIC50', item= `CCOC(=O)N1CCC(n2ncc3c(N4CC5CCC(C4)O5)nc(-c4ccc(NC(=O)Nc5ccncc5)cc4)nc32)CC1` )
Response: 9.47

Query: Endpoint output: pIC50 of `O=C(Nc1ccc(CO)cc1)Nc1ccc(-c2nc(N3CC4CCC(C3)O4)c3cnn(CC(F)(F)F)c3n2)cc1` . Value?
Response: 9.82

Query: Quick check: pIC50 of `O=C(NCCF)Nc1ccc(-c2nc(N3CC4CCC(C3)O4)c3cnn(C4CCN(Cc5cccnc5)CC4)c3n2)cc1` ?
Response: 9.30

Query: I have this compound here, COC(=O)Nc1ccc(-c2nc(N3CC4CCC(C3)O4)c3cnn(C4CCC(O)CC4)c3n2)cc1 (stereo not drawn) , and I need its recorded pIC50.
Response: 8.43

Query: What value of measured pIC50 is listed for `CCn1ncc2c(N3CC4CCC(C3)O4)nc(-c3ccc(NC(=O)NC4CCCCC4)cc3)nc21` ?
Response: 7.82

Query: Record request: pIC50 value, item `CC(C)OC(=O)N1CCC(n2ncc3c(N4CC5CCC(C4)O5)nc(-c4ccc(NC(=O)Nc5ccncc5)cc4)nc32)CC1`
Response: 9.64

Query: I would be grateful if you could share the reported pIC50 for `COC(=O)Nc1ccc(-c2nc(N3CC4CCC(C3)O4)c3cnn(C4CCN(C(=O)OC)CC4)c3n2)cc1` .
Response: 8.44

Query: Consider the compound `CCOC(=O)N1CCC(n2ncc3c(N4CC5CCC(C4)O5)nc(-c4ccc(NC(=O)NC5CCNCC5)cc4)nc32)CC1` and give its measured pIC50.
Response: 8.17

Query: Fill in: pIC50 of `CCNC(=O)Nc1ccc(-c2nc(N3CC4CCC(C3)O4)c3cnn(C(C)(C)C)c3n2)cc1` is ___
Response: 9.29

Query: I would be grateful if you could share the reported pIC50 for `COC(=O)N1CCC(n2ncc3c(N4CC5CCC(C4)O5)nc(-c4ccc(NC(=O)OCCN(C)C)cc4)nc32)CC1` .
Response: 6.44

Query: pIC50 lookup needed for `COC(=O)N1CCC(n2ncc3c(N4CC5CCC(C4)O5)nc(-c4ccc(N)cc4)nc32)CC1` , thanks.
Response: 7.16
